System: CD8+ T cells
assayProtocol: In vitro immunogenicity of HLA-A*2402 restricted TUMAPs: priming of CD8+ T cells with pMHC/anti-CD28 coated beads (aAPC), multimer staining
Format: cell-based, human
condition: HLA-A*2402 peptides; healthy donors; three stimulation cycles; at least four donors evaluable
Returns: string. Value is 1.0 if measured Donors positive/evaluable [%] is below 50%, and 0.0 if it is greater than or equal to it.

[[record]]
sequencecontent = "HYKPTPLYF (listed as Homo sapiens) [SMC4-001]"
targetofassay = "CD8+ T cells"
classlabel = 0.0

[[record]]
sequencecontent = "VYPNWAIGL (listed as Homo sapiens) [SLC6A6-001]"
targetofassay = "CD8+ T cells"
classlabel = 1.0

[[record]]
sequencecontent = "AYPTVKFYF (listed as Homo sapiens) [DNAJC10-002]"
targetofassay = "CD8+ T cells"
classlabel = 1.0


For the next question, use this sequence.
// query Hello, is Donors positive/evaluable [%] of the following sequence strictly smaller than 50%? FYISPVNKL (listed as Homo sapiens) [AVL9-001]
// result 0.0
